These entries and their values trace back to patent US7118895B2.

# Test system: Crude diglycosidase
# test protocol: Examination of substrate concentration in the conversion into isoflavone aglycons by diglycosidase using soybean materials;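 note: percent of the isoflavone family total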
# Assay type: biochemical, Penicillium multicolor IAM7153
# experimental parameters: concentrated soybean protein, substrate concentration 10%, heat treatment of enzyme no, reaction time 1 h
metric: Decomposition efficiency: ratio of each glycoside/aglycon within its isoflavone family (%)
Give bare numbers, in %.

mol=CC(=O)OC[C@H]1O[C@@H](Oc2ccc3c(=O)c(-c4ccc(O)cc4)coc3c2)[C@H](O)[C@@H](O)[C@@H]1O experimental_target="Crude diglycosidase" observed_result=39.7
mol=O=c1c(-c2ccc(O)cc2)coc2cc(O[C@@H]3O[C@H](CO)[C@@H](O)[C@H](O)[C@H]3O)ccc12 experimental_target="Crude diglycosidase" observed_result=2.2
mol=COc1cc2c(=O)c(-c3ccc(O)cc3)coc2cc1O experimental_target="Crude diglycosidase" observed_result=66.8
mol=COc1cc2c(=O)c(-c3ccc(O)cc3)coc2cc1O[C@@H]1O[C@H](CO)[C@@H](O)[C@H](O)[C@H]1O experimental_target="Crude diglycosidase" observed_result=1.6
mol=O=c1c(-c2ccc(O)cc2)coc2cc(O[C@@H]3O[C@H](CO)[C@@H](O)[C@H](O)[C@H]3O)cc(O)c12 experimental_target="Crude diglycosidase" observed_result=1.3
mol=COc1cc2c(=O)c(-c3ccc(O)cc3)coc2cc1O[C@@H]1O[C@H](COC(C)=O)[C@@H](O)[C@H](O)[C@H]1O experimental_target="Crude diglycosidase" observed_result=31.2
mol=COc1cc2c(=O)c(-c3ccc(O)cc3)coc2cc1O[C@@H]1O[C@H](COC(=O)CC(=O)O)[C@@H](O)[C@H](O)[C@H]1O experimental_target="Crude diglycosidase" observed_result=0.4

Pending molecule:
Request: May I ask what Decomposition efficiency: ratio of each glycoside/aglycon within its isoflavone family has been recorded for CC(=O)OC[C@H]1O[C@@H](Oc2cc(O)c3c(=O)c(-c4ccc(O)cc4)coc3c2)[C@H](O)[C@@H](O)[C@@H]1O ?
Response: 42.8
